- Test system: SK-MEL-2 melanoma
- Procedure summary: NCI-60 one-dose screen, 48 h (100 = growth as untreated, 0 = no growth, -100 = all killed)
- Reported conditions: 10 µM unless noted
About 83,000 compounds went through this panel and 20% of them were active in at least one assay; those are over-represented in the sample as a whole.
Field 'label' (enum: yes / no). Set to yes when growth is strictly under 90%; else no.

[[record]]
compound = "O=C1CCC2(O)[C@@H]3Cc4ccc(O)c5c4[C@]2(CCN3Cc2ccoc2)C1O5 (stereo not given in full)"
experimental_system = "SK-MEL-2 melanoma"
group_label = "no"

[[record]]
compound = "Cn1cc(-c2csc(-c3cn(CCN4CCOCC4)c4ccccc34)n2)c2cccnc21"
experimental_system = "SK-MEL-2 melanoma"
group_label = "yes"

[[record]]
compound = "N/C(=N\\N=C\\c1ccc(-c2ccccc2)cc1)N[N+](=O)[O-]"
experimental_system = "SK-MEL-2 melanoma"
group_label = "yes"

[[record]]
compound = "O=[N+]([O-])CC(O)C(Cl)(Cl)Cl (stereo not given)"
experimental_system = "SK-MEL-2 melanoma"
group_label = "no"

[[record]]
compound = "Clc1ccc2nnnn2n1"
experimental_system = "SK-MEL-2 melanoma"
group_label = "yes"

[[record]]
compound = "O=C(CCl)c1ccc([N+](=O)[O-])o1"
experimental_system = "SK-MEL-2 melanoma"
group_label = "yes"

[[record]]
compound = "CCCCOc1ccc(C(N)Cc2ccccc2)cc1 (stereo not given)"
experimental_system = "SK-MEL-2 melanoma"
group_label = "no"

[[record]]
compound = "CC(=O)OCc1cc[c]([Hg][Cl])o1"
experimental_system = "SK-MEL-2 melanoma"
group_label = "yes"

[[record]]
compound = "C[N+]12CN3CN(CN(C3)C1)C2"
experimental_system = "SK-MEL-2 melanoma"
group_label = "no"

[[record]]
compound = "O=P(N1CC1)(N1CC1)N1CCc2ccccc21"
experimental_system = "SK-MEL-2 melanoma"
group_label = "no"

[[record]]
compound = "COc1ccc(C(O)(C(=O)O)c2ccc(OC)cc2)cc1"
experimental_system = "SK-MEL-2 melanoma"
group_label = "yes"

[[record]]
compound = "CC(=O)Oc1ccccc1C(=O)NCCC[Se]C#N"
experimental_system = "SK-MEL-2 melanoma"
group_label = "yes"

[[record]]
compound = "Cc1cc(NC(=O)NCc2ccc(N3C(N)=NC(N)=NC3(C)C)cc2)ccc1S(=O)(=O)F"
experimental_system = "SK-MEL-2 melanoma"
group_label = "yes"

[[record]]
compound = "COc1ccc2c(c1)c(C1(O)CC(CSC#N)OC1=O)cn2C(=O)c1ccc(Cl)cc1 (stereo not given)"
experimental_system = "SK-MEL-2 melanoma"
group_label = "yes"

[[record]]
compound = "CNC(=O)Oc1ccc(C(C)(C)C)cc1OC(=O)NC"
experimental_system = "SK-MEL-2 melanoma"
group_label = "yes"

[[record]]
compound = "CCC(CC)CC1(C)CC2(C)CCOC2OO1 (stereo not given)"
experimental_system = "SK-MEL-2 melanoma"
group_label = "no"

[[record]]
compound = "NC(=O)C(Br)c1ccccc1 (stereo not given)"
experimental_system = "SK-MEL-2 melanoma"
group_label = "yes"

[[record]]
compound = "NC(CCl)CCl"
experimental_system = "SK-MEL-2 melanoma"
group_label = "no"

[[record]]
compound = "CC(C)(C)C(=O)OCOP(=O)(OCOC(=O)C(C)(C)C)C1CCCN(O)C1=O (stereo not given)"
experimental_system = "SK-MEL-2 melanoma"
group_label = "yes"

[[record]]
compound = "c1cnc2[nH]cc(-c3csc(-c4cn(CCCCN5CCCCC5)c5ccccc45)n3)c2c1"
experimental_system = "SK-MEL-2 melanoma"
group_label = "no"

[[record]]
compound = "Nc1nc([Se])c2ncn(C3OC(CO)C(O)C3O)c2n1 (stereo not given)"
experimental_system = "SK-MEL-2 melanoma"
group_label = "no"

[[record]]
compound = "CC12CC(=O)C3(SC#N)C(CCC4=CC(=O)CCC43C)C1CCC2=O (stereo not given)"
experimental_system = "SK-MEL-2 melanoma"
group_label = "no"

[[record]]
compound = "O=C1OCCC1Br (stereo not given)"
experimental_system = "SK-MEL-2 melanoma"
group_label = "no"

[[record]]
compound = "CCCCNC(c1ccc(Cl)cc1)C(O)c1ccc(Cl)cc1 (stereo not given)"
experimental_system = "SK-MEL-2 melanoma"
group_label = "yes"

[[record]]
compound = "CC12CCC3C(CCC4Cc5[nH]c6ccccc6c5CC43C)C1CCC2O (stereo not given)"
experimental_system = "SK-MEL-2 melanoma"
group_label = "yes"

[[record]]
compound = "O=C1C2C(C(=O)[N]1[Hg][c]1cccs1)C1(Cl)C(Cl)=C(Cl)C2(Cl)C1(Cl)Cl (stereo not given)"
experimental_system = "SK-MEL-2 melanoma"
group_label = "yes"

[[record]]
compound = "CC(=O)O[C@H]1CC[C@H]2[C@@H]3CC=C4c5nc(-c6ccccc6)sc5CC[C@]4(C)[C@H]3CC[C@]12C"
experimental_system = "SK-MEL-2 melanoma"
group_label = "yes"

[[record]]
compound = "CNC(=O)Oc1ccc2c(c1)OCO2"
experimental_system = "SK-MEL-2 melanoma"
group_label = "no"

[[record]]
compound = "COc1ccc(/C=C\\c2cc(OC)c(OC)c(OC)c2)c(NS(=O)(=O)c2ccc(F)cc2)c1O"
experimental_system = "SK-MEL-2 melanoma"
group_label = "yes"

[[record]]
compound = "CCCCN(CCCC)P(=O)(Oc1ccccc1)Oc1ccccc1"
experimental_system = "SK-MEL-2 melanoma"
group_label = "yes"

[[record]]
compound = "C/C(=C\\c1ccn(-c2ccc(N)c(F)c2)n1)[C@@H]1C[C@@H]2O[C@]2(C)CCC[C@H](C)[C@H](O)[C@@H](C)C(=O)C(C)(C)[C@@H](O)CC(=O)O1"
experimental_system = "SK-MEL-2 melanoma"
group_label = "yes"

[[record]]
compound = "CCCCCCCCC(CO)NCCc1ccccc1 (stereo not given)"
experimental_system = "SK-MEL-2 melanoma"
group_label = "no"

[[record]]
compound = "O=C1C(N2CC2)=C(N2CC2)C(=O)C(N2CC2)=C1N1CC1"
experimental_system = "SK-MEL-2 melanoma"
group_label = "yes"

[[record]]
compound = "CCOP1(=O)CC(C)=C(Cl)C(P(=O)(OCC)OCC)C1 (stereo not given)"
experimental_system = "SK-MEL-2 melanoma"
group_label = "no"

[[record]]
compound = "C=CCCCN=C=S"
experimental_system = "SK-MEL-2 melanoma"
group_label = "yes"

[[record]]
compound = "Cc1cc(N(CCCl)CCCl)ccc1/C=N\\NC(=O)c1ccncc1"
experimental_system = "SK-MEL-2 melanoma"
group_label = "no"

[[record]]
compound = "COc1ccc(/C=C\\c2cc(OC)c(OC)c(OC)c2)cc1OCC(=O)Nc1nc2ccc(F)cc2s1"
experimental_system = "SK-MEL-2 melanoma"
group_label = "yes"

[[record]]
compound = "C[C@@]1(CCCCCCCCCc2ccc(O)cc2)C[C@]2(C)OC(=O)C[C@@H]2OO1"
experimental_system = "SK-MEL-2 melanoma"
group_label = "no"

[[record]]
compound = "CNCc1cccnc1"
experimental_system = "SK-MEL-2 melanoma"
group_label = "no"

[[record]]
compound = "COc1ccc(O)c(CNC(=O)CN2CCCC2=O)c1"
experimental_system = "SK-MEL-2 melanoma"
group_label = "no"

[[record]]
compound = "Clc1cccc(N2COOC3(OOC2)C2CC4CC(C2)CC3C4)c1"
experimental_system = "SK-MEL-2 melanoma"
group_label = "no"

[[record]]
compound = "COc1ccc(/C=C\\c2cc(OC)c(OC)c(OC)c2)cc1NC(=O)/C=C/c1ccc(OC)c(OC)c1"
experimental_system = "SK-MEL-2 melanoma"
group_label = "yes"

